Read-out: Interleukin-1 alpha (IL1a), IL1A (gene 3552)
protocol description: BSK_KF3CT_IL1a: BioMAP Diversity Plus: KF3CT Assay for Interleukin-1 alpha (IL1a) Biomarker Activity (AID 2283070)
protocol conditions: primary human keratinocytes with fibroblasts; actives raise or lower the signal
Procedure: BSK_KF3CT is a cell-based, multiplexed-readout assay that uses keratinocytes and foreskin fibroblasts, a human skin primary cell co-culture, with measurements taken at 24 hours after chemical dosing in a 96-well plate.BSK_KF3CT_IL1a is an assay component measured in the BSK_KF3CT assay. It measures IL-1a antibody related to regulation of gene expression using ELISA technology.Data from the assay component BSK_KF3CT_IL1a was analyzed into 1 assay endpoint. […]
Activity calls are given as the source filed them. Rule for the calls: active = hit-call score of the fitted dose curve at least 0.9, where 1 is the maximum; inactive = score below 0.9.
Possible outcomes: yes for active, no for inactive

{"compound": "OCC(F)(F)C(F)(F)C(F)(F)C(F)F", "label class": "no"}
{"compound": "C=CC(=O)OCC(F)(F)C(F)(F)C(F)(F)C(F)(F)C(F)(F)C(F)(F)C(F)(F)F", "label class": "no"}
{"compound": "C=CC(F)(F)C(F)(F)C(F)(F)C(F)(F)C(F)(F)C(F)(F)C(F)(F)C(F)(F)C=C", "label class": "no"}
{"compound": "O=C(O)C=C(C(F)(F)F)C(F)(F)F", "label class": "no"}
{"compound": "N=C(N)C(F)(F)C(F)(F)C(F)(F)C(F)(F)C(F)(F)C(F)(F)C(F)(F)F", "label class": "no"}
{"compound": "FC(F)(F)C(F)(F)C(F)(F)C(F)(F)CCI", "label class": "no"}
{"compound": "FC(F)(F)C(F)(F)C(F)(F)C(F)(F)C(F)(F)CCI", "label class": "no"}
{"compound": "CCc1ccc(C(c2ccc(CC)cc2)C(Cl)Cl)cc1", "label class": "yes"}
{"compound": "FC1CC(F)(F)C(F)(F)C1(F)F (configuration not stated)", "label class": "no"}
{"compound": "O=C(O)C(F)(F)C(F)(F)C(F)(F)F", "label class": "no"}
{"compound": "CS(C)(=O)=O", "label class": "no"}
{"compound": "O=C(O)C(F)(F)C(F)(F)C(F)(F)C(F)(F)F", "label class": "no"}

---

Read-out: Vascular cell adhesion molecule 1 (VCAM1), VCAM1 (gene 7412)
protocol description: BSK_4H_VCAM1: BioMAP Diversity Plus: 4H Assay for Vascular cell adhesion molecule 1 (VCAM1) Biomarker Activity (AID 2283033)
protocol conditions: primary human endothelial cells (HUVEC); actives raise or lower the signal
Active and inactive are the calls of the source. Rule for the calls: active = hit-call score of the fitted dose curve at least 0.9, where 1 is the maximum; inactive = score below 0.9.
Possible outcomes: active, inactive

{"compound": "O[Si](c1ccccc1)(c1ccccc1)c1ccccc1", "label class": "active"}
{"compound": "FC(F)(F)C(F)(F)CNCC(F)(F)C(F)(F)F", "label class": "inactive"}
{"compound": "C=C(C)C(=O)OCC(F)(F)C(F)(F)C(F)(F)C(F)(F)C(F)(F)C(F)(F)C(F)(F)F", "label class": "inactive"}
{"compound": "Oc1ccc(Nc2ccccc2)cc1", "label class": "active"}
{"compound": "C=CC(F)(F)C(F)(F)C(F)(F)C(F)(F)C(F)(F)C(F)(F)C(F)(F)C(F)(F)C=C", "label class": "inactive"}
{"compound": "FC(F)(F)C(F)(F)C(F)(F)N(C(F)(F)C(F)(F)C(F)(F)F)C(F)(F)C(F)(F)C(F)(F)F", "label class": "inactive"}
{"compound": "O=S(=O)(OCC(F)F)C(F)(F)F", "label class": "inactive"}
{"compound": "OCC(F)(F)C(F)(F)C(F)(F)C(F)(F)C(F)(F)C(F)F", "label class": "inactive"}
{"compound": "OCC(F)(F)C(F)(F)C(F)(F)C(F)F", "label class": "inactive"}
{"compound": "FC(F)(Br)C(F)(F)C(F)(F)C(F)(F)C(F)(F)C(F)(F)Br", "label class": "inactive"}
{"compound": "O=C(Cl)C(F)(F)C(F)(F)C(F)(F)C(F)(F)C(F)(F)C(F)(F)C(F)(F)C(F)(F)F", "label class": "inactive"}
{"compound": "CCCCCCCOC(=O)c1ccccc1C(=O)OCCCCCCC", "label class": "inactive"}
{"compound": "COC(=O)CCC(F)(F)C(F)(F)C(F)(F)C(F)(F)F", "label class": "inactive"}
{"compound": "CCCCC(CC)COP(=O)(O)OCC(CC)CCCC (stereo not drawn)", "label class": "inactive"}
{"compound": "CCCCCCC(C)OC(=O)CCCCC(=O)OC(C)CCCCCC (stereo not drawn)", "label class": "inactive"}
{"compound": "CCN(CC)c1ccc2c(C)cc(=O)oc2c1", "label class": "inactive"}
{"compound": "O=C(O)C(F)(F)C(F)(F)F", "label class": "inactive"}
{"compound": "O=C(O)C(F)(F)C(F)(F)C(F)(F)C(F)(F)C(F)(F)C(F)(F)C(F)(F)C(F)(F)C(F)(F)C(F)(F)C(F)(F)C(F)(F)C(F)(F)F", "label class": "inactive"}
{"compound": "OCCCC(F)(F)C(F)(F)C(F)(F)F", "label class": "inactive"}
{"compound": "CCCCCCCCCCCCCCCC[N+](C)(C)Cc1ccccc1", "label class": "active"}
{"compound": "O=C(O)C(F)(F)C(F)(F)C(F)F", "label class": "inactive"}
{"compound": "C#C[C@]1(O)CC[C@H]2[C@@H]3CCc4cc(OC)ccc4[C@H]3CC[C@@]21C", "label class": "inactive"}
{"compound": "C=C(C)C(=O)OCC(F)(F)C(F)(F)C(F)(F)F", "label class": "inactive"}
